Target: Cytochrome P450 1A2 (Homo sapiens, UniProt P05177)
Sequence (P05177 whole entry): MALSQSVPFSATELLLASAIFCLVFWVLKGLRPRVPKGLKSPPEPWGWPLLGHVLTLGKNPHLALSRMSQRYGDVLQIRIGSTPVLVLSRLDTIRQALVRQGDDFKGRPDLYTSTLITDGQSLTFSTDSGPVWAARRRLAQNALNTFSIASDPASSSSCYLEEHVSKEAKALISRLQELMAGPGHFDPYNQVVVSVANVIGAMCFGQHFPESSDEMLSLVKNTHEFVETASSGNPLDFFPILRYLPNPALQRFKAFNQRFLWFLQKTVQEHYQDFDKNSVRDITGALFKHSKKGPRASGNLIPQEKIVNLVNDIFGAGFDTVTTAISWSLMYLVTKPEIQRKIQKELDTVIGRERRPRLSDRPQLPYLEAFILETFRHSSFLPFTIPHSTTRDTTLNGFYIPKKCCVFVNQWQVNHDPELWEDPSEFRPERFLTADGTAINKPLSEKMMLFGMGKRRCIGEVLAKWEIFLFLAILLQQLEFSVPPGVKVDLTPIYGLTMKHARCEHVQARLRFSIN
assay_endpoint: IC50

Exercise: What value of IC50 on Cytochrome P450 1A2 (Homo sapiens, UniProt P05177) does `c1ccc2cc(NC3=NC[C@@]4(CN5CCC4CC5)O3)ncc2c1` have?
Key: > 40 µM

----------
Experiment: Plasma concentration in C57Bl/6 mouse NOR model at 0.03 mg/kg, sc measured after 0.5 hrs
Assay type: ADME, organism-based
assay_endpoint: concentration at 0.5 h (nM)
Express the result in nM but write the number alone.

Exercise: Fill in the blank: the reported concentration at 0.5 h of `c1ccc2cc(NC3=NC[C@@]4(CN5CCC4CC5)O3)ncc2c1` is ____.
Key: 4

----------
Assay: Drug uptake in C57Bl/6 mouse NOR model brain at 0.03 mg/kg, sc measured after 0.5 hrs
Type: ADME, organism-based
Details: read-out: Drug uptake
assay_endpoint: concentration at 0.5 h (nM)
Express the result in nM but write the number alone.

Exercise: Fill in the blank: the reported concentration at 0.5 h of `c1ccc2cc(NC3=NC[C@@]4(CN5CCC4CC5)O3)ncc2c1` is ____.
Key: 19

----------
Target: Neuronal acetylcholine receptor; alpha3/beta4 (Rattus norvegicus, UniProt P04757+P12392)
Sequence (P04757 whole entry): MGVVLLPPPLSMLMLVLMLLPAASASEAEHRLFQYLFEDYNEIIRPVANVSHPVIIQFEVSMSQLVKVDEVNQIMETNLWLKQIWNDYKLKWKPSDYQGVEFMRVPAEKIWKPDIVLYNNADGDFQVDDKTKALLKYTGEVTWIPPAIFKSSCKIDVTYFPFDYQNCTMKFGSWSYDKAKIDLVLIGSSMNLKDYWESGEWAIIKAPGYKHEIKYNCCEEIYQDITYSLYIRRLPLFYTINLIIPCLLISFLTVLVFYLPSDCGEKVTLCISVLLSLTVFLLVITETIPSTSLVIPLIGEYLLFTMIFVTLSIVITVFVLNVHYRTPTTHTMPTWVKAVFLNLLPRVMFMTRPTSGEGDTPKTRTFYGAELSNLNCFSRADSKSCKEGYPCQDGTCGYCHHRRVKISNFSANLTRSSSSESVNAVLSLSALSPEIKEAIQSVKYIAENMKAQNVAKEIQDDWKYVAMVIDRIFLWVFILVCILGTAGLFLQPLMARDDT
Sequence (P12392 whole entry): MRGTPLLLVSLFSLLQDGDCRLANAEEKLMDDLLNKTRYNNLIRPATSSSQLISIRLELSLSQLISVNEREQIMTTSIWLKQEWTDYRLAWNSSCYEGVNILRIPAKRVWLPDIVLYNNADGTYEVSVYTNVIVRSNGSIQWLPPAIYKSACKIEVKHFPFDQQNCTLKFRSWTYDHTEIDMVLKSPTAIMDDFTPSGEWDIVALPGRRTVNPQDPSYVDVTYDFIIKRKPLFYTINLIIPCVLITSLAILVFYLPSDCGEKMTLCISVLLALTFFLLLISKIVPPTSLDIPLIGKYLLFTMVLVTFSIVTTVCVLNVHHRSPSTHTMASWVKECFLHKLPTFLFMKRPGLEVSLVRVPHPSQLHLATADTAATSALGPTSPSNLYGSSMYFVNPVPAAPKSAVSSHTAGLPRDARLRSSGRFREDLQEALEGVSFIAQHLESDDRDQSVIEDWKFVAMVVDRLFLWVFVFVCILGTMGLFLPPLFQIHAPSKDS
Test: Agonist activity at rat alpha3beta4 nAChR expressed in HEK293 cells for 2 mins by FLIPR assay
Format: cell-based
pEC50: −log10 of the molar value.
assay_endpoint: pEC50

COc1ccc2nc(NC3=NC[C@@]4(CN5CCC4CC5)O3)sc2c1 : < 4.00

Then there is this compound:
Exercise: Fill in the blank: the reported pEC50 of `c1ccc2cc(NC3=NC[C@@]4(CN5CCC4CC5)O3)ncc2c1` is ____.
Key: < 4.00

----------
Target: Cytochrome P450 2C9 (Homo sapiens, UniProt P11712)
Sequence (P11712 whole entry): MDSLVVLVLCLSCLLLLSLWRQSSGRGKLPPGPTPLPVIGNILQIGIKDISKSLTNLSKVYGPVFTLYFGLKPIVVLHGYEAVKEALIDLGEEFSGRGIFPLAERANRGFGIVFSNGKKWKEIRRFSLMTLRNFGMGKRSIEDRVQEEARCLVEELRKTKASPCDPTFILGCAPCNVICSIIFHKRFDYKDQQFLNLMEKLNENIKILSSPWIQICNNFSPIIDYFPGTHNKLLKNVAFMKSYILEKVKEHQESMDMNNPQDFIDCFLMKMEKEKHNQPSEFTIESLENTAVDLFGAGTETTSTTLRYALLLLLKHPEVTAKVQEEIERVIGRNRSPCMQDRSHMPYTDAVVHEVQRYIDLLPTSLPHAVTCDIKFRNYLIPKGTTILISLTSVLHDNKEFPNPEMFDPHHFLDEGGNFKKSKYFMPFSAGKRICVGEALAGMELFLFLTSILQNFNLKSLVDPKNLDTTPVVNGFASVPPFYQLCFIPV
pIC50: −log10 of the molar value.
assay_endpoint: pIC50

Exercise: What value of pIC50 on Cytochrome P450 2C9 (Homo sapiens, UniProt P11712) does `c1ccc2cc(NC3=NC[C@@]4(CN5CCC4CC5)O3)ncc2c1` have?
Key: < 4.40

----------
Assay: Drug uptake in C57Bl/6 mouse NOR model brain at 1 mg/kg, sc measured after 0.5 hrs
Type: ADME, organism-based
Conditions: read-out: Drug uptake
assay_endpoint: concentration at 0.5 h (nM)
Express the result in nM but write the number alone.

Exercise: Fill in the blank: the reported concentration at 0.5 h of `c1ccc2cc(NC3=NC[C@@]4(CN5CCC4CC5)O3)ncc2c1` is ____.
Key: 744

----------
Experiment: Fraction unbound in mouse plasma
Type: ADME, cell-free
assay_endpoint: fraction unbound
Format: numeric value only, no unit, no commentary.

Exercise: Fill in the blank: the reported fraction unbound of `c1ccc2cc(NC3=NC[C@@]4(CN5CCC4CC5)O3)ncc2c1` is ____.
Key: 0.23

----------
Molecular target: 5-HT3A (Homo sapiens, UniProt P46098)
Sequence (P46098 whole entry): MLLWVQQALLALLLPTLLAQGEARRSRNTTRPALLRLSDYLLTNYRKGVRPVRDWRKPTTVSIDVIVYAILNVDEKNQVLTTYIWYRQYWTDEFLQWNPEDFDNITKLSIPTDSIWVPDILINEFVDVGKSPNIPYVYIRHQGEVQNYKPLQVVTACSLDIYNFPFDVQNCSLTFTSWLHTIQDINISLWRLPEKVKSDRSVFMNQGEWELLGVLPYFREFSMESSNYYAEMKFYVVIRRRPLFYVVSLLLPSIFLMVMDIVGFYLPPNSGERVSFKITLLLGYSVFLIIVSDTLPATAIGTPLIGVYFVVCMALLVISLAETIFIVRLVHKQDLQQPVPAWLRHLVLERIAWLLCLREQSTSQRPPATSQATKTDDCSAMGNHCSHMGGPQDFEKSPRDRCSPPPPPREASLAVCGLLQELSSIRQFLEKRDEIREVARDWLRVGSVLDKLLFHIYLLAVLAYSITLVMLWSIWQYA
Assay: Antagonist activity at 5-HT3A (unknown origin) at 10 uM
assay_endpoint: inhibition at 10 µM (%)
Express the result in % but write the number alone.

Exercise: Fill in the blank: the reported inhibition at 10 µM of `O=C1NC[C@@]2(CN3CCC2CC3)O1` is ____.
Key: 2.5

----------
Experiment: Plasma concentration in C57Bl/6 mouse NOR model at 0.3 mg/kg, sc measured after 6 hrs
Type: ADME, organism-based
assay_endpoint: concentration at 6 h (nM)
Express the result in nM but write the number alone.

Exercise: Fill in the blank: the reported concentration at 6 h of `c1ccc2cc(NC3=NC[C@@]4(CN5CCC4CC5)O3)ncc2c1` is ____.
Key: 9
